The reported numbers originate from PubChem BioAssay AID1259240.

Test Protocol: TERT promoter activity modulators, primary screen, cell-based, luciferase reporter, human (AID 1259240)
Test Settings: A2780 TERT promoter luciferase reporter, 16 h; at 20 µM, fold versus average of vehicle-only wells unless noted
Active and inactive are the calls of the source. Rule as the data show it: active = fold change mostly below about -2 (no sharp cut-off); inactive = mostly above about -1.8.
Select the matching outcome among active, inactive

[Q] Field: outcome | Entry: Clc1ccc(Cl)c2c1NC(c1cccnc1)C1CC=CC21 (stereo unspecified)
[A] inactive

Continuing:
[Q] Field: outcome | Entry: `Cc1nnc2ccc(N3CCN(C)CC3)nn12`
[A] inactive

[Q] Field: outcome | Entry: CC12CC(c3ccccc3O1)C(C(=O)OCc1ccccc1)C(=O)N2 (stereo unspecified)
[A] active

[Q] Field: outcome | Entry: `N#Cc1cnn2c(C(F)(F)F)cc(-c3cccs3)nc12`
[A] inactive

[Q] Field: outcome | Entry: CCOC(=O)C1CC2CCCN2C12C(=O)N(Cc1ccccc1)c1ccccc12 (stereo unspecified)
[A] inactive

[Q] Field: outcome | Entry: Cc1cc(Cl)cc2c1NC(c1cccnc1)C1CC=CC21 (stereo unspecified)
[A] active
